- measurement.description: Selectivity index, ratio of IC50 for taq polymerase to IC50 for human telomerase
Decision: Ratio IC50 >= 2 yields Criterion met, all other cases yield Criterion not met.

Field: example entries. Status: answers known.
O=c1cc(-c2ccc(OCc3ccc(Cl)nc3)cc2)oc2cc(OCc3ccc(Cl)nc3)cc(O)c12: Criterion met
O=c1cc(-c2ccccc2)oc2cc(OCc3ccc(Cl)nc3)cc(O)c12: Criterion not met

Check the entry COc1ccc(-c2cc(=O)c3ccc(OCc4ccc(Cl)nc4)cc3o2)cc1 : does Ratio IC50 equal or exceed 2?
Criterion met

Check the entry COc1ccc(-c2coc3cc(OCc4ccc(Cl)nc4)ccc3c2=O)cc1 : does Ratio IC50 equal or exceed 2?
Criterion met

Check the entry O=c1cc(-c2ccc(OCc3ccc(Cl)nc3)cc2)oc2cc(OCc3ccc(Cl)nc3)ccc12 : does Ratio IC50 equal or exceed 2?
Criterion not met

Check the entry O=c1cc(-c2ccc(OCc3ccc(Cl)nc3)cc2)oc2cc(O)cc(O)c12 : does Ratio IC50 equal or exceed 2?
Criterion not met

* * *

- assayed.target: Telomerase reverse transcriptase (Homo sapiens)
- Sequence (O14746 whole entry): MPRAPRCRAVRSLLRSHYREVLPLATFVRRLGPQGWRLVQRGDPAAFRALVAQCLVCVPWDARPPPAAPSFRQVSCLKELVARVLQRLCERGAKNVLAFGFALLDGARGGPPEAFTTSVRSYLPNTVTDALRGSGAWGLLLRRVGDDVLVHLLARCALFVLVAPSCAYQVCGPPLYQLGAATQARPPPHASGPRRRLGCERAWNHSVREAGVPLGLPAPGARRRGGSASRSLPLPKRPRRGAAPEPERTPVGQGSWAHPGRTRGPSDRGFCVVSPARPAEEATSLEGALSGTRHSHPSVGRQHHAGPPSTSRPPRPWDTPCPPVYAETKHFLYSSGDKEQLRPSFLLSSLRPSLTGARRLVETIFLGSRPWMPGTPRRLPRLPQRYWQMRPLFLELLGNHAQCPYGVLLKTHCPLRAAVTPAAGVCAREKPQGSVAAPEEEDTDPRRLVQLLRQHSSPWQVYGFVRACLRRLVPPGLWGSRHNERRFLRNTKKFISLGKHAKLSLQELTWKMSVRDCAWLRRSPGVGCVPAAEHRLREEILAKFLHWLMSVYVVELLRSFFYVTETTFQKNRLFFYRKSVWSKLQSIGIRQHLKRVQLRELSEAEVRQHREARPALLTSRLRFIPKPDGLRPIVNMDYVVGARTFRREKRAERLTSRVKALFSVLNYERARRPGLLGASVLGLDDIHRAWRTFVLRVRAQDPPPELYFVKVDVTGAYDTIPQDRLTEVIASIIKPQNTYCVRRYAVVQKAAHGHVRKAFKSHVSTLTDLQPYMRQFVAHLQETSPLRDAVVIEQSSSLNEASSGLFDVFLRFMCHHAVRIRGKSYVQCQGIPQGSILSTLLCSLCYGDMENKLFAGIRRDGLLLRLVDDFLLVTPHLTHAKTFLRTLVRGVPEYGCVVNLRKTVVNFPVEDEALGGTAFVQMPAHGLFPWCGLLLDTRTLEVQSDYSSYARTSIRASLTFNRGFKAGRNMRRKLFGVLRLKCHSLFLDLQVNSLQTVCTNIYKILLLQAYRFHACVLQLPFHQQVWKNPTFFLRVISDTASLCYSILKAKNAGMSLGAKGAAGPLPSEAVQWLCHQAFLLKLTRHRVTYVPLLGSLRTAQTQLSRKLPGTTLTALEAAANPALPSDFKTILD
- measurement.description: Inhibition of human telomerase in human SGC7901 cells by TRAP assay
Catalogue of IC50 readings, one per entry.
Give your result in µM as a bare value.

Sample answers from the record:
COc1ccc(-c2cc(=O)c3ccc(OCc4ccc(Cl)nc4)cc3o2)cc1: 3.1
O=c1cc(-c2ccc(OCc3ccc(Cl)nc3)cc2)oc2cc(OCc3ccc(Cl)nc3)ccc12: 3
O=c1cc(-c2ccc(OCc3ccc(Cl)nc3)cc2)oc2cc(O)cc(O)c12: 3.5
O=c1cc(-c2ccccc2)oc2cc(OCc3ccc(Cl)nc3)cc(O)c12: 20.9
COc1ccc(-c2coc3cc(OCc4ccc(Cl)nc4)ccc3c2=O)cc1: 2.5

Which IC50 value is on record for O=c1cc(-c2ccc(OCc3ccc(Cl)nc3)cc2)oc2cc(OCc3ccc(Cl)nc3)cc(O)c12 ?
0.8

Which IC50 value is on record for CC(=O)N1N=C(C)CC1c1ccc(OCc2ccc(Cl)nc2)cc1 (configuration not stated) ?
46.7

* * *

Record set of IC50 for target or system DNA polymerase I, thermostable (Thermus aquaticus, UniProt P19821).
Give your result in µM as a bare value.

Sample answers from the record:
COc1ccc(-c2cc(=O)c3ccc(OCc4ccc(Cl)nc4)cc3o2)cc1: 6.4
COc1ccc(-c2coc3cc(OCc4ccc(Cl)nc4)ccc3c2=O)cc1: 7.5

Note: attention shifts to another entry.
Which IC50 value is on record for O=c1cc(-c2ccc(OCc3ccc(Cl)nc3)cc2)oc2cc(OCc3ccc(Cl)nc3)ccc12 ?
5

* * *

- System: SGC-7901
- measurement.description: Cytotoxicity against human SGC7901 after 48 hrs by MTT assay
- Type: functional, cell-based
- cond: sgc-7901
endpoint.name: IC50

O=c1c(OCc2ccc(Cl)nc2)c(-c2ccccc2)oc2ccccc12: Not Active
CC(=O)N1N=C(C)CC1c1ccccc1OCc1ccc(Cl)nc1 (stereo not given): Not Active
COc1ccc(-c2oc3ccccc3c(=O)c2OCc2ccc(Cl)nc2)cc1: Not Active
CC(=O)N1N=C(C)CC1c1ccc(OCc2ccc(Cl)nc2)cc1 (stereo not given): Not Active

Note: attention shifts to another entry.
Which IC50 value is on record for O=c1cc(-c2ccccc2)oc2cc(OCc3ccc(Cl)nc3)cc(O)c12 ?
Not Active
